The reported numbers originate from paper PMC10786891.

Kindly state pKd for each of the entries shown.
- system_under_test: T1, EsCas13d, nuclease-dead (Eubacterium siraeum, UniProt B0MS50, R295A;H300A;R849A;H854A)
- T1 sequence: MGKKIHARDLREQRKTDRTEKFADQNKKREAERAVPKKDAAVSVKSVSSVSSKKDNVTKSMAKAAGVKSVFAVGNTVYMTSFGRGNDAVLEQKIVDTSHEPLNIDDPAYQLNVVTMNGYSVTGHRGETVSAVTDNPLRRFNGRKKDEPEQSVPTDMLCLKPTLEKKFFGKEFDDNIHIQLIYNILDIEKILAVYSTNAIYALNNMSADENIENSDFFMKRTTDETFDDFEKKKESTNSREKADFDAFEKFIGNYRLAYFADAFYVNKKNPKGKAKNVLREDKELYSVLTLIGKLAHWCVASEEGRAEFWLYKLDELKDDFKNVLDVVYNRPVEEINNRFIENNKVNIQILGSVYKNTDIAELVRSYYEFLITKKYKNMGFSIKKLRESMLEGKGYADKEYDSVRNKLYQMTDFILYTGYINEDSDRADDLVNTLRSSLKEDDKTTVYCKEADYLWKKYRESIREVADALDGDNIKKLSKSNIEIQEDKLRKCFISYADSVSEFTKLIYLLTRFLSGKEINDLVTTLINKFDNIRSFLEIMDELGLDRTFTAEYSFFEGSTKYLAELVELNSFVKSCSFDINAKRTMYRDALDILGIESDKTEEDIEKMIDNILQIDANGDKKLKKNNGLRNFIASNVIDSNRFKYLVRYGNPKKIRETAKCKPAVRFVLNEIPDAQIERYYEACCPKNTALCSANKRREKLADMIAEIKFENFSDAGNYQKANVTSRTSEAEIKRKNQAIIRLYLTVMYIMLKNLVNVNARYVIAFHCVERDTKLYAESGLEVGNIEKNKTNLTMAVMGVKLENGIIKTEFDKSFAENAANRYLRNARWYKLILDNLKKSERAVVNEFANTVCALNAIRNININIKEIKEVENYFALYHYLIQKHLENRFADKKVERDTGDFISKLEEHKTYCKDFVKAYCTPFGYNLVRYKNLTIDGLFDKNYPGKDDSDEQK
- assay_summary: crRNA (strand 1, pre-loaded); Mg2+; 40 mM Tris-HCl pH 7.5, 150 mM NaCl, 6 mM MgCl2, 1 mM DTT, 0.1% Tween-20, 0.2 mg/ml BSA; 25 C; 10 min per concentration, then washed
- measurement_context: tags: His6-TwinStrep-SUMO cleaved; N-terminal SNAP kept (SNAP-Surface 488); label: 3' end held by stalled T7 RNA polymerase
Scale for pKd: -log10 of concentration given in mol/L; no unit attached.

Specify measured pKd for target 1 C4G,U8G (mixed) RNA 1: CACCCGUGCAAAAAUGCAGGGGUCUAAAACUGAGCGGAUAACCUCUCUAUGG RNA 2: GGGAAUGGAUCCACAUCUACGAAUUCGUACCAUAGAGAGGUUAGCCGGUCACCGAGAUCGGAAGAGCACACGU .
8.26

Specify measured pKd for target 2 MT 5'PFS GAU 3'PFS UAG (mixed) RNA 1: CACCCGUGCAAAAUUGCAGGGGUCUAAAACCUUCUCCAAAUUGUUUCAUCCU RNA 2: GGGAAUGGAUCCACAUCUACGAAUUCGAUAGGAUGAAACAAUUUGGAGAAGUAGAGAUCGGAAGAGCACACGU .
7.87
